- System: adjuvant induced arthritis in rats
- Assay info: Adjuvant-induced arthritis in rats
- Type: in vivo, rat
- Condition info: 7 mg peptide with 1 mg MTB; rats with arthritis/rats in group
Marks after values point to notes of the source that are not given here.
Experimental endpoint: Summary of in vivo adjuvant induced arthritis results: TREATMENT

Below: 3 substances and their reported Summary of in vivo adjuvant induced arthritis results: TREATMENT.
[in] # Summary of in vivo adjuvant induced arthritis results: TREATMENT lookup, item H-FLFAEIVSI-OH [Peptide N, F L F A E I V S I]
[out] 0/5*

[in] What measured Summary of in vivo adjuvant induced arthritis results: TREATMENT goes with H-IIVTDVIATL-OH [Peptide M, I I V T D V I A T L] ?
[out] 2/5

[in] So what's the measured Summary of in vivo adjuvant induced arthritis results: TREATMENT for this one? H-LLMTLRLWSS-OH [Peptide P, L L M T L R L W S S]
[out] 0/5

Next:
[in] What measured Summary of in vivo adjuvant induced arthritis results: TREATMENT goes with H-IVIVDICIT-OH [Peptide L, I V I V D I C I T] ?
[out] 0/5*

[in] Please give the measured Summary of in vivo adjuvant induced arthritis results: TREATMENT for this substance: H-YGRADCGITS-OH [Peptide J, Y G R A D G G I T S]
[out] 3/10*

[in] I have this substance here, H-AGFNLLMT-OH [Peptide O, A G F N L L M T] , and I need its recorded Summary of in vivo adjuvant induced arthritis results: TREATMENT.
[out] 1/10*

[in] # Summary of in vivo adjuvant induced arthritis results: TREATMENT lookup, item H-SSDVPCDATLT-OH [K, S S D V P C D A T L T]
[out] 5/10
